Examples of binders with documented koff follow.
Biological target: T1, Human SIRPαV2 (CAA71403.1), Extracellular Domain + His-Tag (human, UniProt P78324 31-373)
T1 construct: also called huSIRPαV2; hSIRPαV2; not shown: His-Tag
T1 sequence (P78324 other isoform, or with tags, fused parts or gaps): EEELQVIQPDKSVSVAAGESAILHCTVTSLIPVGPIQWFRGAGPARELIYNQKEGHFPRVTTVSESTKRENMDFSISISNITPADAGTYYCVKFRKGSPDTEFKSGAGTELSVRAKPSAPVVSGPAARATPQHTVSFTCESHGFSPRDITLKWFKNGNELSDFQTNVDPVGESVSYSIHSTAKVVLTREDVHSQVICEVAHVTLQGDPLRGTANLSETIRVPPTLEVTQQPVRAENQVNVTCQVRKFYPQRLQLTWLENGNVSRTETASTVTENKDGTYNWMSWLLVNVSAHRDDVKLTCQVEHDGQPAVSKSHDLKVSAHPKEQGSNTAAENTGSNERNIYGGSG
Experiment: SPR, antibody captured on Protein A/G, ECD-His analyte, 1:1 fit
Description: The binding kinetics of anti-SIRPα antibodies to various SIRPα analytes are determined by surface plasmon resonance (SPR) using a Biacore 8K+(Cytiva). 1×HBS-EP+(Cytiva) is used as running buffer and for all the dilutions unless stated otherwise. […]
measurement_kind: koff (s⁻¹)

- binder: "Antibody A1 (antibody, human IgG1, kappa, L234A L235A, V domains shown) VH: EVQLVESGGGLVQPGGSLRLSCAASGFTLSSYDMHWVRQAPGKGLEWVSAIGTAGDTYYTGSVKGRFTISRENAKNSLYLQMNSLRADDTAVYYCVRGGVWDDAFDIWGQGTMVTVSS VL: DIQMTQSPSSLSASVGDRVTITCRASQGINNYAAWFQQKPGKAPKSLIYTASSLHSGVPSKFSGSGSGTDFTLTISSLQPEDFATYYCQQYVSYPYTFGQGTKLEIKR"
  u: "s⁻¹"
  endpoint_result: 0.0162
- binder: "Antibody E17 (antibody, human IgG1, kappa, L234A L235A, V domains shown) VH: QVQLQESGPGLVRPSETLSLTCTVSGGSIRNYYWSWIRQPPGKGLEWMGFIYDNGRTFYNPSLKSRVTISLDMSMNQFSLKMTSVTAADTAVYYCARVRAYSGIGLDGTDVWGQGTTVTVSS VL: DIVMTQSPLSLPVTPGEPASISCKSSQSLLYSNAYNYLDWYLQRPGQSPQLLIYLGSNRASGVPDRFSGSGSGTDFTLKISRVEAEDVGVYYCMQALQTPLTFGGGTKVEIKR"
  u: "s⁻¹"
  endpoint_result: 0.000405
- binder: "Antibody A7 (antibody, human IgG1, kappa, L234A L235A, V domains shown) VH: EVQLVESGGGLVQPGGSLRLSCAASGFTLSSYDMHWVRQATGKGLEWVSAIGTAGDTYYTGSVKGRFTISRENAKNSLYLQMNSLRAGDTAVYYCVRGGVWDDAFDIWGQGTMVTVSS VL: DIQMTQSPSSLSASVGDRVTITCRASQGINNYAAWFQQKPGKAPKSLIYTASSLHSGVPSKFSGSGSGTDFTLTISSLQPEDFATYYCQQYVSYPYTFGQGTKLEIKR"
  u: "s⁻¹"
  endpoint_result: 0.019
